# assay_overview: Plasmodium falciparum growth inhibition, primary screen, strain 3D7, DAPI fluorescence, 100 nL (AID 1184);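 also: parasites grown inside human red blood cells in medium with human serum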
# recorded_conditions: P. falciparum 3D7 growth, 3 d, higher = more signal
Please note: criterion met applies when z-score is -0.4 or greater, and criterion not met applies otherwise.

* COc1ccc(C#Cc2ccc3c(c2)[C@]2(C(=O)N3)[C@H](C(=O)NC[C@H](O)c3ccccc3)[C@H]3C(=O)O[C@H](c4ccccc4)[C@H](c4ccccc4)N3[C@@H]2c2ccc(OCCO)cc2)cc1 | criterion not met
* [N-]=[N+]=NCc1ccccc1C[C@]1(C(=O)NCCN2CCOCC2)N=C(c2ccc(OCCCO)cc2)O[C@H]1c1ccccc1N=[N+]=[N-] | criterion not met
* CC(=O)Nc1cc(Br)ccc1C(=O)O | criterion met
* [N-]=[N+]=NCc1ccccc1C[C@]1(C(=O)O)N=C(c2ccc(OCCCO)cc2)O[C@H]1c1ccccc1CN=[N+]=[N-] | criterion not met
* CC(C)C[C@@H]1NC(=O)[C@@H]2C[C@H](C(=O)NCCCCCC[N+](C)(C)C)[C@H](c3ccc(O)cc3)N2C1=O | criterion met
* O=C1N(CCS(=O)(=O)c2ccccc2)c2ccccc2C[C@@]12COC(c1ccc(OCCCO)cc1)=N2 | criterion not met
* CC(C)(C)N1CC=CC23O[C@@H]4C=CCOC(=O)[C@@H]4[C@H]2C(=O)N(CCCCCO)[C@@H]3C1=O (stereo not given in full) | criterion met
* C=CCC(OC(C)=O)[C@@H]1[C@@H](N(Cc2cccc3ccccc23)C(=O)c2ccc(C)cc2)c2cc(OCCCO)ccc2N1C(=O)Cc1ccc(OC)cc1 (stereo not given in full) | criterion not met
* COc1ccc([Si](C)(C)[C@H]2[C@H](CCn3cc([C@H](O)c4ccccc4)nn3)O[C@@]3(C(=O)N(Cc4cccc(N5CCC5=O)c4)c4ccccc43)[C@@H]2C)cc1 | criterion not met
* Cc1cc(C)c(C(O)C2C=CC3C(=O)N(C)C(=O)C3N2Nc2ccccc2)c(C)c1 (stereo not given) | criterion met
* CC(C)c1ccc(NN2C(C(O)c3c(F)cccc3Cl)C=CC3C(=O)N(c4ccccc4)C(=O)C32)cc1 (stereo not given) | criterion not met
* O=c1cccc(CCc2ccccc2)o1 | criterion met
* [N-]=[N+]=NCc1ccccc1C[C@]1(C(=O)O)N=C(c2ccc(OCCCO)cc2)O[C@H]1c1ccccc1 | criterion met
* C#CCN(C(/C=C/c1ccccc1)CO)C(C(=O)O)c1ccccc1 (stereo not given) | criterion not met
* Cc1ccc(S[C@]2(C(=O)NC3CC3)CC(=O)N(Cc3ccccc3)[C@@H]2c2ccc(CO)cc2)cc1 | criterion met
* CN1CCC(CCCO)=CC1c1ccc(CN2CCCC2)cc1 (stereo not given) | criterion not met
* C=CCOC(=O)[C@H]1[C@@H]2C(=O)O[C@@H](c3ccccc3)[C@@H](c3ccccc3)N2[C@@H](c2ccc(OCCOC(=O)[C@@H]3C[C@@H]4C(=O)N5CCC[C@H]5C(=O)N4[C@@H]3c3ccc(O)cc3)cc2)[C@]12C(=O)Nc1ccccc12 | criterion not met
* Cc1ccc(S[C@]2(C(=O)NCc3ccccc3)CC(=O)N(Cc3ccccc3)[C@@H]2c2ccc(CO)cc2)cc1 | criterion met
* C=CC[C@]1(C(=O)N2CCOCC2)N=C(c2ccc(OCCCO)cc2)O[C@H]1c1ccccc1 | criterion not met
* Cc1ccc(S[C@]2(C(=O)NCCN3CCOCC3)CC(=O)N(Cc3cc(C(F)(F)F)cc(C(F)(F)F)c3)[C@@H]2c2ccc(CO)cc2I)cc1 | criterion met
* O=C1OCCC=C[C@H]2OC34C=CCN(Cc5ccccc5)C(=O)[C@H]3N(CCCO)C(=O)[C@@H]4C12 (stereo not given in full) | criterion not met
* CC(C)C[C@@H]1NC(=O)[C@H]2C[C@@H](C(=O)NCCCCCNC(=O)CS)[C@@H](c3cccc(OCCO)c3)N2C1=O | criterion met
* COC(=O)c1ccc(C(O)C2C=CC3C(=O)N(c4ccccc4)C(=O)C3N2Nc2ccc(C#N)cc2)o1 (stereo not given) | criterion met
* O=C1C2C=CC(C(O)c3ccc(F)cc3)N(Nc3ccccc3)C2C(=O)N1c1ccccc1 (stereo not given) | criterion met
* COC(=O)[C@@]1(Cc2ccccc2)[C@H]2c3cc(C(=O)N4CCCC4)n(Cc4ccc(C)o4)c3C[C@H]2CN1C(=O)c1ccccc1 | criterion not met
* CC(C)NC(=O)[C@@H]1c2ccccc2C(=O)N(Cc2ccccc2Cl)[C@H]1c1ccc(CO)cc1 | criterion not met
* COC(=O)C[C@H]1O[C@]2(C(=O)N(Cc3ccccc3)c3ccc(NC(C)=O)cc32)[C@@H](C)[C@@H]1[Si](C)(C)c1ccc(OC)cc1 | criterion not met
* C=CCNC(=O)[C@H]1[C@@H]2C(=O)O[C@@H](c3ccccc3)[C@@H](c3ccccc3)N2[C@@H](c2ccc(O)cc2)[C@]12C(=O)N(C(=O)OCCOC)c1ccc(C#CCCO)cc12 | criterion met
* CCCCCN1CC=CC23O[C@@H]4/C=C\CCCOC(=O)C4[C@H]2C(=O)N(CCCCCCO)[C@@H]3C1=O (stereo not given in full) | criterion not met
* COCCOC(=O)N1C(=O)[C@@]2(c3cc(C#CC4=CCCCC4)ccc31)[C@H](C(=O)NC[C@H](O)c1ccccc1)[C@H]1C(=O)O[C@H](c3ccccc3)[C@H](c3ccccc3)N1[C@@H]2c1ccc(O)cc1 | criterion not met
